# targetSystem: human RARα (Homo sapiens)
# Sequence (P10276 whole entry): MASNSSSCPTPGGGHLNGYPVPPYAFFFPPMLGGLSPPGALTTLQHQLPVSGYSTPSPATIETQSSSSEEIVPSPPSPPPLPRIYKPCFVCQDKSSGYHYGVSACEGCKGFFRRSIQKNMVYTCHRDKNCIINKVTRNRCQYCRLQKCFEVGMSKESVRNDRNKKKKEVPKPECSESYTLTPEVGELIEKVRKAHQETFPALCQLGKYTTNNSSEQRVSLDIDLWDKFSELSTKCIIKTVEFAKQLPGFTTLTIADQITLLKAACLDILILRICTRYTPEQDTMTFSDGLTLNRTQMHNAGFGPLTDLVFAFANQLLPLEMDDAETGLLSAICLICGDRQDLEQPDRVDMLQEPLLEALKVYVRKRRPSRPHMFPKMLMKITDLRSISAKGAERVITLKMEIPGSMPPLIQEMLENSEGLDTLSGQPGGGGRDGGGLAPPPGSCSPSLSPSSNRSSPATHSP
# experiment: Transcription-promoting activity via RAR (PLAP reporter in COS-1 cells), RAR-α
# Type: cell-based
# Design: expressed in transfected cells; host or cells: COS-1 (African green monkey kidney), transient lipofection
# runParameters: Relative ED30: ED30 of all-trans-retinoic acid for each receptor = 1
# Excerpt: A human RAR expression vector and a secretory alkali phosphatase (PLAP) gene vector (PLAP vector) having a response sequence integrated upstream for allowing RAR-bound PLAP to be expressed depending on ligand, were tentatively introduced into COS-1 (renal cell line derived from African green monkey). […]
assayReadout: Transcription promoting activity ED30* RAR-α
Give bare numbers.

Some molecules with known Transcription promoting activity ED30* RAR-α results, for comparison:
CCn1nc(-c2ccc(-c3ccc(C(=O)O)cc3)[nH]2)cc1C(C)C [drawing 29]; 0.85
COCc1cc2c(cc1-c1ccc(-c3ccc(C(=O)O)cc3)[nH]1)C(C)(C)CCC2(C)C [drawing 30]; 1.9

For the 4 molecules below, give their Transcription promoting activity ED30* RAR-α values.
1. CC1CCCN(C)c2ncc(-c3ccc(-c4ccc(C(=O)O)cc4)[nH]3)nc21 (stereo not drawn) [drawing 28]
2. CC1(C)CCCc2ncc(-c3ccc(-c4ccc(C(=O)O)cc4)[nH]3)nc21 [drawing 27]
3. C[Si](C)(C)c1cc(C(=O)Nc2ccc(C(=O)O)cc2)cc([Si](C)(C)C)c1 [drawing 31]
4. CC1(C)CCC(C)(C)c2nc(-c3ccc(-c4ccc(C(=O)O)cc4)[nH]3)cnc21 [drawing 26]

## Output
[1.4, 0.2, 6, 0.21]
